# Study system: α-glucosidase
# Protocol summary: In vitro α-glucosidase inhibitory assay
# Format: biochemical
# Parameters: key: (-) indicates inactive compounds
# Test settings: sucrose substrate, 37 °C, 30 min, n = 3
Measure: IC50 (α-glucosidase inhibition), dash = inactive

1. CC1OC(OC2C(Oc3cc(O)c(C4OC(C)C(O)C(OC5OC(C)C(O)C(O)C5O)C4OC(=O)C=Cc4ccccc4)c(O)c3C(=O)CCc3ccc(O)cc3)OC(CO)C2O)C(O)C(O)C1O (stereo not drawn) [Compound 7, carambolaside J]; -
2. CC1OC(OC2C(Oc3cc(O)c(C4OC(C)C(O)C(O)C4OC(=O)C=Cc4ccccc4)c(O)c3C(=O)CCc3ccc(O)cc3)OC(CO)C2O)C(O)C(O)C1O (stereo not drawn) [Compound 9, carambolaside I]; -
3. CC(=O)OC1C(C)OC(c2c(O)cc(OC3OC(CO)C(O)C3OC3OC(C)C(O)C(O)C3O)c(C(=O)CCc3ccc(O)cc3)c2O)C(OC(=O)C=Cc2ccccc2)C1OC1OC(C)C(O)C(O)C1O (stereo not drawn); -

---

# Study system: α-glucosidase
# Protocol summary: In vitro α-glucosidase inhibitory assay
# Format: biochemical
# Design: key: (-) indicates inactive compounds
# Test settings: sucrose substrate, 37 °C, 30 min, n = 3
Measure: IC50 (α-glucosidase inhibition), dash = inactive

1. CC(=O)OC1C(C)OC(c2c(O)cc(OC3OC(CO)C(O)C3OC3OC(C)C(O)C(O)C3O)c(C(=O)CCc3ccc(O)cc3)c2O)C(OC(=O)C=Cc2ccc(O)cc2)C1OC1OC(C)C(O)C(O)C1O (stereo not drawn) [Compound 11]; -
2. CC1OC(OC2C(Oc3cc(O)c(C4OC(C)C(O)C(O)C4O)c(O)c3C(=O)CCc3ccc(O)cc3)OC(CO)C2O)C(O)C(O)C1O (stereo not drawn) [Compound 6, carambolaside Ia]; -
3. CC1OC(c2c(O)cc(OC3OC(CO)C(O)C3O)c(C(=O)CCc3ccc(O)cc3)c2O)C(O)C(O)C1OC1OC(CO)C(O)C(O)C1O (stereo not drawn) [Compound 5, carambolaside M]; -

---

# Study system: α-glucosidase
# Protocol summary: In vitro α-glucosidase inhibitory assay
# Test settings: sucrose substrate, 37 °C, 30 min, n = 3; read-out: IC50 (α-glucosidase inhibition)
pIC50: −log10 of the molar value.
Measure: pIC50

(P) CC1OC(OC2C(Oc3cc(O)c(C4OC(C)C(O)C(O)C4OC(=O)C=Cc4ccc(O)cc4)c(O)c3C(=O)CCc3ccc(O)cc3)OC(CO)C2O)C(O)C(O)C1O (stereo not drawn) [Compound 12, carambolaside Q]
(Q) C[C@H]1O[C@@H](Oc2cc3oc(-c4ccc(O)cc4)cc(=O)c3c(O)c2[C@H]2C[C@@H](O)[C@@H](O)[C@@H](CO)O2)[C@H](O)[C@@H](O)[C@@H]1O
(R) O=c1cc(-c2ccc(O)c(O)c2)oc2cc(O)cc(O)c12 [Luteolin, reference compound]
Re-order the entries listed above so their pIC50 values fall from first to last. Show the ranking through the labels, in the order asked for.
R, P, Q

---

# Study system: α-glucosidase
# Protocol summary: In vitro α-glucosidase inhibitory assay
# Test settings: sucrose substrate, 37 °C, 30 min, n = 3; read-out: IC50 (α-glucosidase inhibition)
Measure: IC50 (µM)

1) O=C(CCc1ccc(O)cc1)c1c(O)cc(O)cc1O [Phloretin, reference compound]; 110

(I) O=c1cc(-c2ccc(O)cc2)oc2cc(O)cc(O)c12 [Apigenin, reference compound]
(II) O=C(CCc1ccc(O)cc1)c1c(O)cc(O)cc1O[C@@H]1O[C@H](CO)[C@@H](O)[C@H](O)[C@H]1O [Phloridzin, phloretin-2′-glucose, reference compound]
Between I and II , which one shows the larger IC50 value? To answer, give the label that identifies your chosen option.
II

---

# Tested on: α-glucosidase
# Protocol summary: In vitro α-glucosidase inhibitory assay
# Type: biochemical
# Test settings: in vitro
Measure: α-glucosidase inhibitory activity (in words)

1. O=c1cc(-c2ccc(O)cc2)oc2cc(O)c(C3OC(CO)C(O)C(O)C3O)c(O)c12 [Compound 3, apigenin 6-C-β-D-galactopyranoside]; Potent inhibition
2. CC1OC(OC2C(Oc3cc(O)c(C4OC(C)C(O)C(O)C4OC(=O)C=Cc4ccccc4)c(O)c3C(=O)CCc3ccc(O)cc3)OC(CO)C2O)C(O)C(O)C1O (stereo not drawn) [Compound 9, carambolaside I]; inactive
3. CC1OC(c2c(O)cc(OC3OC(CO)C(O)C3O)c(C(=O)CCc3ccc(O)cc3)c2O)C(O)C(O)C1OC1OC(CO)C(O)C(O)C1O (stereo not drawn) [Compound 5, carambolaside M]; inactive
4. CC1OC(OC2C(Oc3cc(O)c(C4OC(C)C(O)C(O)C4O)c(O)c3C(=O)CCc3ccc(O)cc3)OC(CO)C2O)C(O)C(O)C1O (stereo not drawn) [Compound 6, carambolaside Ia]; inactive
5. CC1OC(OC2C(c3c(O)cc4oc(-c5ccc(O)cc5)cc(=O)c4c3O)OC(C)C(O)C2O)C(O)C(O)C1O (stereo not drawn) [Compound 4]; Potent inhibition

# query: α-glucosidase inhibitory activity (in words) of entry CC1OC(OC2C(Oc3cc(O)c(C4OC(C)C(O)C(OC5OC(C)C(O)C(O)C5O)C4OC(=O)C=Cc4ccccc4)c(O)c3C(=O)CCc3ccc(O)cc3)OC(CO)C2O)C(O)C(O)C1O (stereo not drawn) [Compound 7, carambolaside J]
inactive

# query: α-glucosidase inhibitory activity (in words) of entry CC(=O)OC1C(C)OC(c2c(O)cc(OC3OC(CO)C(O)C3OC3OC(C)C(O)C(O)C3O)c(C(=O)CCc3ccc(O)cc3)c2O)C(OC(=O)C=Cc2ccccc2)C1OC1OC(C)C(O)C(O)C1O (stereo not drawn) [Compound 8]
inactive

# query: α-glucosidase inhibitory activity (in words) of entry CC(=O)OC1C(C)OC(c2c(O)cc(OC3OC(CO)C(O)C3OC3OC(C)C(O)C(O)C3O)c(C(=O)CCc3ccc(O)cc3)c2O)C(OC(=O)C=Cc2ccc(O)cc2)C1OC1OC(C)C(O)C(O)C1O (stereo not drawn) [Compound 11]
inactive

---

# Study system: α-glucosidase
# Protocol summary: In vitro α-glucosidase inhibitory assay
# Test settings: sucrose substrate, 37 °C, 30 min, n = 3; read-out: IC50 (α-glucosidase inhibition)
Measure: IC50 (µM)

1. CC1OC(OC2C(c3c(O)cc4oc(-c5ccc(O)cc5)cc(=O)c4c3O)OC(C)C(O)C2O)C(O)C(O)C1O (stereo not drawn); 390
2. O=c1cc(-c2ccc(O)cc2)oc2cc(O)c(C3OC(CO)C(O)C(O)C3O)c(O)c12 [Compound 3, apigenin 6-C-β-D-galactopyranoside]; 439
3. CC1OC(OC2C(c3c(O)cc4oc(-c5ccc(O)c(O)c5)cc(=O)c4c3O)OC(C)C(O)C2O)C(O)C(O)C1O (stereo not drawn); 328
